# TARGET OF ASSAY: human FPR2 (Homo sapiens (Human), UniProt P25090)
# Sequence (P25090 whole entry): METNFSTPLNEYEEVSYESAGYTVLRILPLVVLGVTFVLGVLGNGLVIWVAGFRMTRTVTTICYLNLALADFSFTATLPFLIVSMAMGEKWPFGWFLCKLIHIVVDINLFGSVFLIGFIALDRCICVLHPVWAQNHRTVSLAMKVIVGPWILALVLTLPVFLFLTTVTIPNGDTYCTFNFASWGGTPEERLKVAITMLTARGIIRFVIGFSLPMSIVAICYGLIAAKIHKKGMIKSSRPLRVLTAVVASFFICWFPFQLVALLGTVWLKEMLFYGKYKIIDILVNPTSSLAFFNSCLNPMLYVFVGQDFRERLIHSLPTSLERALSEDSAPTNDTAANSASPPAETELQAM
# TEST SUMMARY: FPR2 cyclic adenosine monophosphate (cAMP) assay
# Type: cell-based
# CONDITION SET: CHO cells overexpressing human FPR2; forskolin 5 μM, IBMX 200 μM; inhibition of cAMP production, HTRF; read-out: hFPR2 cAMP2 EC50
# Procedure: N-formyl peptide receptors (FPRs) are a family of chemo attractant receptors that facilitate leukocyte response during inflammation. FPRs belong to the seven-transmembrane G protein-coupled receptor superfamily and are linked to inhibitory G-proteins (Gi). […] FPR2 and FPR1 Cyclic Adenosine Monophosphate (cAMP) Assays. […] The level of intracellular cAMP was determined using the HTRF HiRange cAMP assay reagent kit (Cisbio) according to manufacturer's instruction. […]
Consider the following compounds; for each one, report its EC50.
Mention the unit after the number when you answer.

response.value for COc1cc(F)c([C@@H]2CN(c3cccn(CC(O)C(F)(F)F)c3=O)C(=O)[C@H]2NC(=O)NC2CCc3cc(OC)ccc3C2)c(F)c1 (single isomer, unassigned) [Example 77] (field: EC50) = 15 nM

response.value for COc1cc(F)c([C@@H]2CN(c3nccc(N4CCOCC4)c3C(F)(F)F)C(=O)C2NC(=O)N[C@H]2CC[C@H](C(F)F)CC2)c(F)c1 (some centres unmarked) (field: EC50) = 14.8 nM

response.value for COCC(CO)n1cccc(N2C[C@@H](c3c(F)cc(OC)cc3F)[C@H](NC(=O)NC3CCc4cc(OC)ccc4C3)C2=O)c1=O (some centres unmarked) [Example 81] (field: EC50) = 5.9 nM

response.value for COCCn1cccc(N2C[C@@H](c3c(F)cc(OC)cc3F)[C@H](NC(=O)NC3CCc4cc(OC)ccc4C3)C2=O)c1=O (some centres unmarked) [Example 34] (field: EC50) = 4.2 nM

response.value for "COc1cc(F)c([C@@H]2CN(c3nccc(NCC(C)(C)O)c3C(F)(F)F)C(=O)[C@H]2NC(=O)N[C@H]2CC[C@H](C(F)F)CC2)c(F)c1" (field: EC50) = 39 nM

response.value for "COc1cc(F)c([C@H]2[C@H](NC(=O)N[C@H]3CC[C@H](C(F)F)CC3)C(=O)N(c3ncccc3OC)[C@H]2C)c(F)c1" (field: EC50) = 7.4 nM

response.value for COCCn1cccc(N2C(=O)[C@@H](NC(=O)NC3CCc4cc(OC)ccc4C3)[C@H](c3c(F)cc(OC)cc3F)[C@@H]2C)c1=O (some centres unmarked) [Example 29] (field: EC50) = 3.3 nM

response.value for COc1cc(F)c([C@@H]2CN(c3nccc(NC4CCOC4)c3C(F)(F)F)C(=O)[C@H]2NC(=O)N[C@H]2CC[C@H](C(F)F)CC2)c(F)c1 (single isomer, unassigned) [Example 99] (field: EC50) = 6.2 nM
